# measuredOn: UniProt:O14727
# Sequence (O14727 whole entry): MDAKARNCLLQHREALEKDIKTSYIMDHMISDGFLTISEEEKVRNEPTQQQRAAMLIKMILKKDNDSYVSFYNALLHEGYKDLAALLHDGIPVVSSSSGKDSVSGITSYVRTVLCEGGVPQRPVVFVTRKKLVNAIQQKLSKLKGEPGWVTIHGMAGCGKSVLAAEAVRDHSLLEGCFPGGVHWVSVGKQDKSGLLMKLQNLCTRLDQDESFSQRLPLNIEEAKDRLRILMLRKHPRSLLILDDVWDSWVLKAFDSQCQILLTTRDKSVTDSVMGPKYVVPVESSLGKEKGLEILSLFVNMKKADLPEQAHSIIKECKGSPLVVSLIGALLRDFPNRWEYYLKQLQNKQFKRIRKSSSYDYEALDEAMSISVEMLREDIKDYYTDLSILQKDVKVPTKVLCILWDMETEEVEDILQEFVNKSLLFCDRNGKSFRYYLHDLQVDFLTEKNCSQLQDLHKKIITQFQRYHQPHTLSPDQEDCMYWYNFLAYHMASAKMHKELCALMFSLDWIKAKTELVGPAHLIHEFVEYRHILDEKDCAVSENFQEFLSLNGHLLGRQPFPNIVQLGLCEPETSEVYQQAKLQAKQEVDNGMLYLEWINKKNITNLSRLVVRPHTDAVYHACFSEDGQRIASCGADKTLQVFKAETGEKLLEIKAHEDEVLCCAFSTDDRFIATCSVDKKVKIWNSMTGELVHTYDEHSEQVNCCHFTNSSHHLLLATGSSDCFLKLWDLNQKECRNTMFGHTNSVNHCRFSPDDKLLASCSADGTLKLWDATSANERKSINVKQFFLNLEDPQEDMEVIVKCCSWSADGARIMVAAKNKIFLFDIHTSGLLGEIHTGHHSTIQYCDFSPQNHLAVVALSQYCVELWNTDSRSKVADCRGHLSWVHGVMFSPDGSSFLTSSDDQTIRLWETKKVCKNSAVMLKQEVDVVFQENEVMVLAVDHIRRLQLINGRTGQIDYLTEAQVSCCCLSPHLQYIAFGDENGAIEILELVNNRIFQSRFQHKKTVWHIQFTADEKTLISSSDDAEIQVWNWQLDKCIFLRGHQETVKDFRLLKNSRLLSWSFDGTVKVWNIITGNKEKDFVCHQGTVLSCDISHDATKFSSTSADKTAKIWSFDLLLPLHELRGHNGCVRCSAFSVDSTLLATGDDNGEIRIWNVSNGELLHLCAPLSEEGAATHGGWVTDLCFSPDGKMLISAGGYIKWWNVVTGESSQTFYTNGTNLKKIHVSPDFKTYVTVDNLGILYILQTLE
# Sequence (P06454 2-111 partner): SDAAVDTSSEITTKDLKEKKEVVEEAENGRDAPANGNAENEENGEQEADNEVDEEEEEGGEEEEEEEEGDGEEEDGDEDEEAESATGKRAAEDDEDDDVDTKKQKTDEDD
# protocolDetails: ELISA and FLAG-IP of recombinant Apaf-1/ProT interaction blocked by BETT
pEC50: −log10 of the molar value.
measuredParameter: pEC50

Response field pEC50 (UniProt:O14727) for item Sc1nnc(-c2cc3ccccc3o2)n1-c1ccccc1 : ~4.30
